Assembled from different publications: IC50 for F1F0-ATPase (Bos taurus, UniProt P13621).

- Compound: "O=C(/N=C(/Nc1ccccc1C1CC1)N[C@H]1CC[C@H](O)CC1)c1ccc(C(F)(F)F)cc1"
  IC50: "< 10 µM"

Exercise: Identify the measured IC50 of CCC(C)N/C(=N\C(=O)c1cn(C)nc1C(F)(F)F)Nc1cc(-c2cc(F)cc(F)c2)n[nH]1 (stereo not drawn) for F1F0-ATPase (Bos taurus, UniProt P13621).
Solution: < 5 µM

Exercise: Similarly, Cc1cc(C(=O)/N=C(/NCC(C)C)Nc2cc(-c3ccc(F)cc3)n[nH]2)c(C(F)(F)F)o1 ?
Solution: < 5 µM

Exercise: Similarly, CCOC(=O)N[C@H]1CC[C@H](N/C(=N\C(=O)c2ccc(F)c(F)c2)NCc2cccc(F)c2)CC1 ?
Solution: < 10 µM

Exercise: Similarly, Cc1ccccc1CN/C(=N/C(=O)c1cccc(F)c1)Nc1cc(-c2ccc(F)cc2)[nH]n1 ?
Solution: < 10 µM

Exercise: Similarly, COc1ccc(C(=O)N=C(NCc2ccc(F)cc2Cl)Nc2cc(C(F)(F)F)n[nH]2)cc1 ?
Solution: < 10 µM

Exercise: Similarly, CC(C)OCCCNC(=NC(=O)c1ccc(Cl)c(F)c1)Nc1cc(-c2cc(F)cc(F)c2)n[nH]1 ?
Solution: < 10 µM
